Data provenance: patent US20200292534A1

Molecular target: T1, NLpoly11S
T1 chain: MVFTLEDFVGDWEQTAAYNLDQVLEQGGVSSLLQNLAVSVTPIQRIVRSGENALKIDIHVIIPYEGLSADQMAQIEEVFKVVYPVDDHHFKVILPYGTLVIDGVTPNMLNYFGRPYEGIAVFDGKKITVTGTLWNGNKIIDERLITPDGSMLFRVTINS
Assay: luminescence complementation titration, one-site specific binding fit
measured_parameter: pKd
The scale used: pKd is minus the common logarithm of the concentration in molar units.

Q) State its pKd for this binder: VTGYRLFEQAL (modifications not checked) [array2.50]
A) 4.39

Q) Specify pKd for VTGYRLFKQIS (modifications not checked) [array2.4] and stop.
A) 6.13

Q) Look up and report measured pKd for this entry: VTGYRLFKEIL (modifications not checked) [array2.34]
A) 5.36
